# System: 379773-124-R-J2-PDC spheroid viability;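 also: spheroids exposed to drugs for seven days before readout; percent viability relative to DMSO vehicle control taken as 100%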
# protocol.summary: Anticancer human tumor 379773-124-R-J2-PDC patient-derived endometrial carcinoma cell line growth inhibition [POLQ]
# settings: second compound 3.16 µM; first compound 0.001 µM; hits give low values; spheroids with HUVEC and MSC
Task for the reader: assign each of the following molecules its reported viability, T/C.
One number for each entry, in %.

Check out these entries, answers already filled in.
molecule	viability, T/C [%]
CC[C@@]1(O)C(=O)OCc2c1cc1n(c2=O)Cc2cc3c(CN(C)C)c(O)ccc3nc2-1 + COC1C(OC(N)=O)C(O)C(Oc2ccc3c(O)c(NC(=O)c4ccc(O)c(CC=C(C)C)c4)c(=O)oc3c2C)OC1(C)C	71.5
Cn1ncnc1[C@H]1c2n[nH]c(=O)c3cc(F)cc(c23)N[C@@H]1c1ccc(F)cc1 + Cc1cccc(N(C)C(=O)C2C(O)CCN2c2nc(C)cc(C(F)(F)F)c2C#N)c1	83.3
CC[C@@]1(O)C(=O)OCc2c1cc1n(c2=O)Cc2cc3c(CN(C)C)c(O)ccc3nc2-1 + Cc1cccc(N(C)C(=O)C2C(O)CCN2c2nc(C)cc(C(F)(F)F)c2C#N)c1	87.7
Cn1ncnc1[C@H]1c2n[nH]c(=O)c3cc(F)cc(c23)N[C@@H]1c1ccc(F)cc1 + COC1C(OC(N)=O)C(O)C(Oc2ccc3c(O)c(NC(=O)c4ccc(O)c(CC=C(C)C)c4)c(=O)oc3c2C)OC1(C)C	89.3
CC[C@@]1(O)C(=O)OCc2c1cc1n(c2=O)Cc2cc3c(CN(C)C)c(O)ccc3nc2-1 + Nc1ccc(C#CCN(C(=O)Cc2ncc(C(F)(F)F)cc2C(F)(F)F)c2ccc(F)cc2)nn1	90.5

Switching to the query record.
What measured viability, T/C goes with Cn1ncnc1[C@H]1c2n[nH]c(=O)c3cc(F)cc(c23)N[C@@H]1c1ccc(F)cc1 + Nc1ccc(C#CCN(C(=O)Cc2ncc(C(F)(F)F)cc2C(F)(F)F)c2ccc(F)cc2)nn1 ? 91.5

Values from PubChem BioAssay AID1963848
